- System: Plasmodium falciparum NF54 stage IV/V gametocytes
- Assay text: % inhibition of gametocyte viability (luciferase reporter); higher = more inhibition
- Reported conditions: 1 µM; 48 h
Below: a set of entries, each annotated with reported % inhibition of gametocyte viability.
Parameter: % inhibition of gametocyte viability

Compound	Experimental target	Result
Clc1cc2nc(C3CCNCC3)n(Cc3ccc(CNCCc4cnc[nH]4)cc3)c2cc1Cl	Plasmodium falciparum NF54 stage IV/V gametocytes	< 0%
CO[C@@]1(NC(=O)Cc2cccs2)C(=O)N2C(C(=O)O)=C(COC(N)=O)CS[C@@H]21	Plasmodium falciparum NF54 stage IV/V gametocytes	< 0%
COC(=O)Nc1nc2c(C)cccc2[nH]1	Plasmodium falciparum NF54 stage IV/V gametocytes	< 0%
O=C1CCC(N2C(=O)c3ccccc3C2=O)C(=O)N1 (stereo not given)	Plasmodium falciparum NF54 stage IV/V gametocytes	0.963%
Cc1cc(Nc2ccc(F)cc2)nc(SCc2nc3ccccc3[nH]2)n1	Plasmodium falciparum NF54 stage IV/V gametocytes	< 0%
O=C(O)c1sccc1S(=O)(=O)n1ccc2cc(Br)ccc21	Plasmodium falciparum NF54 stage IV/V gametocytes	< 0%
Fc1ccc(-c2nc(-c3c[nH]c4ccc(Br)cc34)[nH]c2-c2ccc(F)cc2)cc1	Plasmodium falciparum NF54 stage IV/V gametocytes	< 0%
Cc1ccc(NC(=O)c2cc(Cl)ccc2O)cc1	Plasmodium falciparum NF54 stage IV/V gametocytes	5.12%
C[C@@H](O)[C@H](N)C(=O)NS(=O)(=O)c1cccc(-c2ccc3[nH]ncc3c2)c1	Plasmodium falciparum NF54 stage IV/V gametocytes	< 0%
CC(C)(C)NC(=O)N[C@H](C(=O)N1C[C@H]2[C@@H]([C@H]1C(=O)NC(CC1CCC1)C(=O)C(N)=O)C2(C)C)C(C)(C)C (stereo not given in full)	Plasmodium falciparum NF54 stage IV/V gametocytes	< 0%

###

- System: HepG2-A16-CD81
- Assay text: % inhibition of HepG2 viability (CellTiter-Glo); higher = more toxic
- Reported conditions: 5 µM

Smiles record	% inhibition of HepG2 viability
Nc1nc2c(Cc3cccnc3)c[nH]c2c(=O)[nH]1	-4.71%
O=C(O)CSc1cc(NS(=O)(=O)c2cccc3cccnc23)c2ccccc2c1O	2.37%
Nc1nc(O)c2ncn(COC(CO)CO)c2n1	3.01%
Cc1ccc(C)c(OCCCCCCN2C[C@H](O)[C@@H](O)[C@H](O)[C@H]2CO)c1	4.29%
COc1ccc(C[C@@H](C)[C@@H](C)Cc2ccc(OC)c(OC)c2)cc1OC	5.15%

###

% inhibition of liver stage parasite viability values, listed per item
- System: Plasmodium berghei ANKA liver stage in HepG2-A16-CD81
- Assay text: % inhibition of liver stage parasite viability (luciferase); higher = more inhibition
- Reported conditions: 5 µM; 48 h
Parameter: % inhibition of liver stage parasite viability (%)

Compound	Unit string	Quantitative readout
CC(Cc1ccccc1)C(=O)Nc1ccc(Cl)cc1C(=O)O (stereo not given)	%	8.73
C=CCc1cc(Cc2cnc(N)nc2N)cc(OC)c1O	%	68.4
O=C(O)c1cc(-c2ccc(Br)cc2)nc2ccc(Cl)cc12	%	-34.6
NC(=O)[C@@H]1CC[C@@H]2CN1C(=O)N2OS(=O)(=O)O	%	12.2
Cc1nc(Nc2ccc(F)cc2)nc(N2CCc3ccccc3C2C)c1C (stereo not given)	%	52.5
CC(=O)NC[C@H]1CN(c2ccc(N3CCSCC3)c(F)c2)C(=O)O1	%	50.2
CC(C)c1cc2c(cc1S(=O)(=O)O)[C@@]1(C)CCC[C@@](C)(C(=O)O)[C@@H]1CC2	%	38.5
Fc1ccc(-c2nc(-c3c[nH]c4ccc(Br)cc34)[nH]c2-c2ccc(F)cc2)cc1	%	27.7
COc1cc(Cc2cnc(N)nc2N)c2c(c1OC)OC(C1CC1)C=C2 (stereo not given)	%	56.5
O=C(N[C@H](CCS)C(=O)N[C@H](Cc1ccccc1)C(=O)O)c1cc2ccccc2[nH]1	%	5.97

###

Reported values of % inhibition of asexual blood stage proliferation for individual entries
- System: Plasmodium falciparum NF54 asexual blood stage
- Assay text: % inhibition of asexual blood stage proliferation (pLDH); higher = more inhibition
- Reported conditions: 2 µM; 72 h
Parameter: % inhibition of asexual blood stage proliferation (%)

Compound	Quantitative readout
O=C(Nc1[nH]c(=O)ncc1F)c1ccccc1	2.42
CCCCCCC1c2ccc(O)cc2Oc2cc(O)ccc21	-7.32
CCOc1ccc(C(=O)NCCc2ccccc2)cc1	34
COCCn1cnc2c(=O)[nH]c(Nc3ccccc3)nc21	28.3
OB1OCc2c1ccc(Cl)c2F	0.633
O=C(O)/C=C/C=C/c1cccc(Oc2cc(Cl)cc(Cl)c2)c1	30.7
Cc1cc(-c2ccccc2)c(C(=O)C(=O)Nc2ccc(N3CCN(c4ncc(F)cn4)CC3)cc2)n1C	2.18
O=C(/C(=C/c1ccc(Cl)cc1Cl)n1ccnc1)c1ccc(Cl)cc1	56.2
CN(Cc1ccc(C(C)(C)C)cc1)Cc1cccc2ccccc12	-5.03
Nc1nc(NC2Cc3ccc(F)cc3C2)nc(N2CCCCC2)n1 (stereo unspecified)	26.7
CCCCc1ccc(S(=O)(=O)Nc2cc(C)on2)cc1	84.8

###

% inhibition of asexual blood stage proliferation: recorded values
- Tested on: Plasmodium falciparum NF54 asexual blood stage
- Assay text: % inhibition of asexual blood stage proliferation (pLDH); higher = more inhibition
- Reported conditions: 2 µM; 72 h
Parameter: % inhibition of asexual blood stage proliferation (%)

Molecule	Quantitative readout
O=S(=O)(Nc1ccc(O)cc1)c1cccc2cccnc12	28.2
C[C@H]1CC[C@@]2(O)C(C)(C)[C@@H]3CC[C@@]2(C)[C@H]1C3	7.01
Nc1nnnn1CCOc1c2[nH]c3ccc(Cl)cc3c2cc2c1[nH]c1ccc(Cl)cc12	11.9
COc1ccc(C[C@@H](C)[C@@H](C)Cc2ccc(OC)c(OC)c2)cc1OC	13.7
Cc1c(N)cccc1Cn1ccc(OCCc2cccs2)cc1=O	6.4
O=C(NC(=O)N1CCCc2ccccc21)c1cccc(Cl)c1	-12.6
CC(C)Cn1c(=O)n(C)c(=O)c2c(-c3cncn3C)n(Cc3cccc4ccccc34)nc21	85.2
COc1ccc2c(c1OC)C(=O)OC2C1c2c(cc3c(c2OC)OCO3)CCN1C (centres undefined)	42.6
NC[C@H]1O[C@H](O[C@H]2[C@H](O)[C@@H](O[C@H]3O[C@H](CO)[C@@H](O)[C@H](N)[C@H]3O)[C@H](N)C[C@@H]2N)[C@H](N)C[C@@H]1O	-2.54
NC(=O)c1cnccn1	38.1
CCc1cc(O)c(Oc2cccnc2N)cc1F	8.28
O=C(CSc1nnc(Br)n1-c1ccc(C2CC2)c2ccccc12)Nc1ccc(C(=O)O)cc1Cl	3.71
O=S(=O)(NCB(O)O)c1ccc(-c2nnn[nH]2)cc1C(F)(F)F	29.1
Fc1ccc(-c2nc(-c3c[nH]c4ccc(Br)cc34)[nH]c2-c2ccc(F)cc2)cc1	74
COC(=O)Nc1nc2cc(S(=O)c3ccccc3)ccc2[nH]1 (centres undefined)	8.21
COC1CC2CCC(C)C(O)(O2)C(=O)C(=O)N2CCCCC2C(=O)OC(C(C)CC2CCC(OCCO)C(OC)C2)CC(=O)C(C)/C=C(\C)C(O)C(OC)C(=O)C(C)CC(C)/C=C/C=C/C=C/1C (centres undefined)	26.6
C[C@@H](NC(=O)c1cccc(-c2c[nH]c(-c3cc4ccccc4cn3)n2)c1)c1ccc(F)cc1	21.8
CC(C)(C)c1cc(CCC(=O)N2CCC2)cc(C(C)(C)C)c1O	4.95
CC(=O)N1CCN(c2ccc(OCC3COC(Cn4ccnc4)(c4ccc(Cl)cc4Cl)O3)cc2)CC1 (centres undefined)	2.92

###

- Test system: Plasmodium falciparum NF54 asexual blood stage
- Assay text: % inhibition of asexual blood stage proliferation (pLDH); higher = more inhibition
- Reported conditions: 20 µM; 72 h
Overview of recorded % inhibition of asexual blood stage proliferation for various compounds
Parameter: % inhibition of asexual blood stage proliferation (%)

Compound	Unit string	Quantitative readout
CNC(=O)C1O[C@@H](n2cnc3c(NCc4cccc(I)c4)nc(Cl)nc32)[C@H](O)[C@@H]1O (stereo partly specified)	%	63
O=C(CSc1nnc(Br)n1-c1ccc(C2CC2)c2ccccc12)Nc1ccc(C(=O)O)cc1Cl	%	46.7
Cc1oncc1C(=O)Nc1ccc(C(F)(F)F)cc1	%	38
Nc1nc(N)c2c(Sc3ccccc3)cccc2n1	%	77.9
NNC(=O)c1ccncc1	%	71.2
NC(=S)N/N=C/c1ncccc1N	%	78.5

###

- Test system: Plasmodium berghei ANKA liver stage in HepG2-A16-CD81
- Assay text: % inhibition of liver stage parasite viability (luciferase); higher = more inhibition
- Reported conditions: 5 µM; 48 h
Parameter: % inhibition of liver stage parasite viability (%)

Compound	Unit string	Quantitative readout
COc1ccc(NS(=O)(=O)c2ccc(Cl)s2)cn1	%	-1.42
CC(=O)N1CCN(c2ccc(OCC3COC(Cn4ccnc4)(c4ccc(Cl)cc4Cl)O3)cc2)CC1 (stereo unspecified)	%	16.4
c1cnc(NCc2ccc(CNc3ncccn3)cc2)nc1	%	25.6
COc1ccc(SC(=O)N[C@H](CCC(=O)O)C(=O)O)cc1	%	19.9
COc1ccc(COc2cc3oc(=O)c4cc(C(C)O)ccc4c3cc2OC)cc1 (stereo unspecified)	%	8.21
NCC(=O)Nc1ccc(-n2nc(C(F)(F)F)cc2-c2ccc3c(ccc4ccccc43)c2)cc1	%	20.2

Data provenance: the supplement of paper PMC7801607
